Give measured pKd for each item. Keep answers brief.
Biological target: T1, PUF4 RNA-binding domain (Saccharomyces cerevisiae, UniProt P25339 537-888)
T1 sequence: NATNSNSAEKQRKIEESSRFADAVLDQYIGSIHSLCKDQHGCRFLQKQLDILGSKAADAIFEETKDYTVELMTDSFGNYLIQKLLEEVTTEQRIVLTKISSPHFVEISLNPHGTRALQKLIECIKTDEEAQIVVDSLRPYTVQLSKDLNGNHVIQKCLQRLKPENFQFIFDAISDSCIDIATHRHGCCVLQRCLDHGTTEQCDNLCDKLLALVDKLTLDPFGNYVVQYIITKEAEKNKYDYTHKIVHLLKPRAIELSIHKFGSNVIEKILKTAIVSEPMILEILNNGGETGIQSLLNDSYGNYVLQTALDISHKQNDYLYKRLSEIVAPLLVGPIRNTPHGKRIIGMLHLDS
Test: Mg; RNA-MaP; 20 mM Na-HEPES pH 7.4, 30 mM KOAc, 0.75 mM MgCl2, 0.1% Tween-20, 5% glycerol, 0.1 mg/mL BSA, 2 mM DTT; 25 C; 0.0125-409.6 nM protein
Conditions: tags: N-His6-TEV cleaved; C-SNAP kept, Cy3B-labelled; label: tethered on chip by stalled RNA polymerase
Answers are plain numbers, as −log10 of the molar value.

A selection of reference data follows.
Id_ii_S2_P3E.3_K3.2_C3.2_[C-2G]_[T-1G]_H3.2_A3.1_F3.1_T3.2_[T9A]_[A10C] (ssRNA) RNA: UUUGAUUAAUAUGAUAUCGUUCUUUCUGGUAUAUAUAACUUCUUUCUCGAUAUCAUAUUAAUCUUU | 5.84
Id_ii_S2_P4E.2_K4.1_C4.2_[C-2G]_[T-1G]_H4.1_A4.1_F4.1_T4.2_[G10T] (ssRNA) RNA: UUUGAUUAAUAUGAUAUCGUUCUUUCUGGUGUAUAUUAUUUUCUUUCUCGAUAUCAUAUUAAUCUUU | 9.36

input: Provide one value: measured pKd of Ib_S2_P3E.1_K3.1_C3.1_H3.1_[T1G]_[G2C]_A3.1_F3.1_T3.1 (ssRNA) RNA: UUUGAUUAAUAUGAUAUCGUUCUUUCUGCUAUAUAUUCUUUCUCGAUAUCAUAUUAAUCUUU
output: 6.10

Origin of measurements: paper PMC9352680
